B1: Poly(rC)-binding protein 1, residues 278 to 350; numbered along this chain, Q15365 (parent)
chain: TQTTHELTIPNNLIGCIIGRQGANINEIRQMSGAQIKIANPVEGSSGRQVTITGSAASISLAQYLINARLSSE

- Variants of: B1
- testProtocol: abundance fitness (aPCA) (normalised: wild type 0, dead -1); higher = more abundant; growth selection in yeast, the domain comes from the species named
- setupConditions: Homo sapiens
Documented abundance fitness across a set of variants

// worked examples, abundance fitness included
variantDescription	abundance fitness
L70R	-0.53
S55H	-0.047
G33R	-0.324

Input N26W . Output abundance fitness: -0.34

Input N24G . Output abundance fitness: -0.04

Input M31A . Output abundance fitness: 0.038

Input A39L . Output abundance fitness: -0.04

Input A57M . Output abundance fitness: -0.204

Input L70I . Output abundance fitness: -0.217

Input N67E . Output abundance fitness: -0.082

Input S45C . Output abundance fitness: 0.012

Input I36D . Output abundance fitness: -0.852
